B1: TNXB (parent)
chain: LLQRELMVPGTRHSAVLRDLRSGT

# Variants of: B1
# assay.info: protein stability index of a GFP-peptide fusion (GPS, HEK-293T) (PSI 1-6); higher = more stable;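 further: lentivirally expressed fusions sorted by FACS into six bins by GFP to DsRed ratio, PSI derived from sequencing read proportions per bin multiplied by bin number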
# cond: c terminus: a fixed tail appended
Recorded protein stability index values for a group of variants are listed next.
recorded.metric: protein stability index

INSERT INTO assay_data (sequence_record, quantitative_result) VALUES
  ('LLQRELMVPGTRHSCVLRDLRSGT', 1.72),
  ('LLQREAMVPGTRHSAVLRDLRSGT', 2.43),
  ('LLTRELMVPGTRHSAVLRDLRSGT', 2.17),
  ('LLQRELMVPGTRHSAVPRDLRSGT', 2.97),
  ('LLQRELMVPGTRHSAVLRDLDSGT', 2.69),
  ('LLQRELMVPGTRHSAVLRDTRSGT', 2.66),
  ('LLQRELTVPGTRHSAVLRDLRSGT', 2.72),
  ('LLQRELAVPGTRHSAVLRDLRSGT', 2.97),
  ('LLQRELMVPGTLHSAVLRDLRSGT', 2.07),
  ('LLQRELMVPMTRHSAVLRDLRSGT', 1.72),
  ('ELQRELMVPGTRHSAVLRDLRSGT', 3.08),
  ('LAQRELMVPGTRHSAVLRDLRSGT', 3.36),
  ('LLQRELMVPGTRHSAVLRDLRSNT', 2.58),
  ('LLQRELMVPGTRHIAVLRDLRSGT', 1.75),
  ('LLQRELMVPGTRHSAVLRDIRSGT', 2.52),
  ('LLQRELMVPGTRHSAVLRDFRSGT', 1.92),
  ('LLQRELMVPGTRHSAVQRDLRSGT', 3.32),
  ('LLQRELMVPGTRHSAVHRDLRSGT', 2.28),
  ('LLQRELMVPGTRWSAVLRDLRSGT', 2.01),
  ('LLQREGMVPGTRHSAVLRDLRSGT', 2.8),
  ('LLQRELMVPETRHSAVLRDLRSGT', 3.01),
  ('LLQRELMVPGTRHSAVLRDLRSGD', 2.5),
  ('LLQRELMVPGTRHSAVLRDLRSGL', 2),
  ('LLQRELMVPGNRHSAVLRDLRSGT', 2.43),
  ('LLQRELWVPGTRHSAVLRDLRSGT', 2.05),
  ('LLQRELMVPGTRHSAVLRDLRNGT', 2.09),
  ('LLQRELMVPGTSHSAVLRDLRSGT', 2.06),
  ('LLQRELMVPGTRDSAVLRDLRSGT', 3.23),
  ('LLQRELMVPGTRHSAVLRDLRSFT', 2.82),
  ('LLQRELMVPGTRHSAVLRDLTSGT', 2.18),
  ('LLQRELMVPGTRHSNVLRDLRSGT', 3.19),
  ('LLQRELMVPGTRHSAVLRDLHSGT', 3.21),
  ('LLQRELMVPGTRHSAMLRDLRSGT', 2.15),
  ('LLQRPLMVPGTRHSAVLRDLRSGT', 2.44),
  ('LLQMELMVPGTRHSAVLRDLRSGT', 2.37),
  ('LLQTELMVPGTRHSAVLRDLRSGT', 2.23),
  ('LLQRELMHPGTRHSAVLRDLRSGT', 2.36),
  ('LLQRELMVPGTRHSAVLRNLRSGT', 2.06),
  ('LWQRELMVPGTRHSAVLRDLRSGT', 2.12),
  ('LLQRYLMVPGTRHSAVLRDLRSGT', 2.38),
  ('LLQRELMRPGTRHSAVLRDLRSGT', 2.12),
  ('LLQRELMVPGTRHSADLRDLRSGT', 3.19),
  ('LLQKELMVPGTRHSAVLRDLRSGT', 2.46),
  ('LLQRELMVPGTRHSAVLRDLFSGT', 1.95),
  ('LLYRELMVPGTRHSAVLRDLRSGT', 1.72),
  ('LLQRELMVPGTRHSAVLRDLSSGT', 2.06);
